All figures here come from the supplement of paper PMC12645437.

# TARGET_SYSTEM: T1, CRBN, Q96SW2;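 also: pooled lentiviral library of zinc finger degron-EGFP fusions in mCherry-positive Jurkat cells, FACS-sorted after compound exposure, with degron abundance counted by next-generation sequencing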
# T1 chain: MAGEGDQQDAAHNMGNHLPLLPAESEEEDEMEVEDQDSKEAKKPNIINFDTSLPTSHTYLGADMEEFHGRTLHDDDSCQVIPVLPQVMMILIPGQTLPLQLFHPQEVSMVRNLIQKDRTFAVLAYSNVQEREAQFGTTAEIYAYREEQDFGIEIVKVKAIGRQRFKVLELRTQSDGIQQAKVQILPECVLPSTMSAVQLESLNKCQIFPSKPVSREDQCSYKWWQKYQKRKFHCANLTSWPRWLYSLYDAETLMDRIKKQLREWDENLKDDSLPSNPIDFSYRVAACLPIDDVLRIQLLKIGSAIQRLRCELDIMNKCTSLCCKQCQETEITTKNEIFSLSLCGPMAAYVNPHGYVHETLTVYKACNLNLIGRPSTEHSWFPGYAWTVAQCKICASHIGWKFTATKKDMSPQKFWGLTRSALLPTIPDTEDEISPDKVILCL
# ASSAY_NOTES: log2 fold change of degron read counts, EGFP-low vs EGFP+ sorted cells (limma voom), compound-induced degradation; higher = more compound-induced degradation of the degron-EGFP fusion; degrons are variants of IKZF1/3 zinc finger 2; compound dose not given here
# MEASUREMENT_CONTEXT: Jurkat; 18 h; compound: thalidomide
The full ranking holds about 8,300 sequences; the median of “log2 fold change of degron read counts, EGFP-low vs EGFP+ sorted cells (limma voom), compound-induced degradation” is about -1.1, and the highest 2% start at about 3.2. The entries come from a sample that favours the highest values as a whole.
Given measured log2 fold change of degron read counts, output t if it is greater than or equal to 1 and f if not.

Answered examples (2):
item_sequence="FCCEVCGAVFTQKGNLLRHIKL [46F_47C_49E_50V_52G_53A_54V_55F_67L_, Q9UKT9]" category_label=t
item_sequence="FSCDVCGAMFTQKGNLLRHIKL [46F_47S_49D_50V_52G_53A_54M_55F_67L_, Q9UKT9]" category_label=f

**Query** API: above_or_equal(metric=log2 fold change of degron read counts, cutoff=1) for item FKCEICGADFTQKGNLLRHIKL [46F_47K_49E_50I_52G_53A_54D_55F_67L_, Q9UKT9]
**Result** f

**Query** Answer whether log2 fold change of degron read counts of LSCEICGFVCTQKGNLLRHIKL [46L_47S_49E_50I_52G_53F_54V_55C_67L_, Q9UKT9] is greater than or equal to 1.
**Result** f

**Query** Exam item: decide whether the reported log2 fold change of degron read counts for FCCPICGARFTQKGNLLRHIKL [46F_47C_49P_50I_52G_53A_54R_55F_67L_, Q9UKT9] is at least 1.
**Result** t

**Query** Identify whether the reported log2 fold change of degron read counts of the following sequence is 1 or greater: FKCPICGHGFTQKGNLLRHIKL [46F_47K_49P_50I_52G_53H_54G_55F_67L_, Q9UKT9]
**Result** f

**Query** Is reported log2 fold change of degron read counts greater than or equal to 1 here: LHCNQCGFWCTQKGNLLRHIKL [46L_47H_49N_50Q_52G_53F_54W_55C_67L_, Q9UKT9]
**Result** f

**Query** Hi, just wondering whether FHCDVCGARFTQKGNLLRHIKL [46F_47H_49D_50V_52G_53A_54R_55F_67L_, Q9UKT9] shows log2 fold change of degron read counts of 1 or higher.
**Result** f

**Query** Is log2 fold change of degron read counts for LLCEICGFVCTQKGNLLRHIKL [46L_47L_49E_50I_52G_53F_54V_55C_67L_, Q9UKT9] at or above 1?
**Result** t

**Query** # check: log2 fold change of degron read counts of FACEICGARFTQKGNLLRHIKL [46F_47A_49E_50I_52G_53A_54R_55F_67L_, Q9UKT9] is greater than or equal to 1
**Result** t

**Query** I'd appreciate it if you could say whether FQCEICGARFTQKGNLLRHIKL [46F_47Q_49E_50I_52G_53A_54R_55F_67L_, Q9UKT9] has log2 fold change of degron read counts at least equal to 1.
**Result** t

**Query** Tell me whether log2 fold change of degron read counts is at least 1 here: FMCPICGARFTQKGNLLRHIKL [46F_47M_49P_50I_52G_53A_54R_55F_67L_, Q9UKT9]
**Result** t

**Query** Identify whether the reported log2 fold change of degron read counts of the following sequence is 1 or greater: LCCEICGFVCTQKGNLLRHIKL [46L_47C_49E_50I_52G_53F_54V_55C_67L_, Q9UKT9]
**Result** t

**Query** Check this sequence for log2 fold change of degron read counts at or above 1: FMCDVCGARFTQKGNLLRHIKL [46F_47M_49D_50V_52G_53A_54R_55F_67L_, Q9UKT9]
**Result** f

**Query** Determine whether this sequence has log2 fold change of degron read counts no lower than 1: FFCNQCGRKFTQKGNLLRHIKL [46F_47F_49N_50Q_52G_53R_54K_55F_67L_, Q9UKT9]
**Result** f

**Query** Entry FVCEICGARFTQKGNLLRHIKL [46F_47V_49E_50I_52G_53A_54R_55F_67L_, Q9UKT9] : is its log2 fold change of degron read counts no less than 1?
**Result** t

**Query** Confirm if log2 fold change of degron read counts reported for the sequence FKCPICGARFTQKGNLLRHIKL [46F_47K_49P_50I_52G_53A_54R_55F_67L_, Q9UKT9] is 1 or above.
**Result** f

**Query** hey, is log2 fold change of degron read counts for this one >= 1? FDCDVCGARFTQKGNLLRHIKL [46F_47D_49D_50V_52G_53A_54R_55F_67L_, Q9UKT9]
**Result** f
